For each of the molecules below, state its melting point.

Given the molecule CN(C)c1ccc(CN2C(=O)C3(COc4cc5c(cc43)OCCO5)c3ccccc32)nc1 (centres unmarked) , what is its reported melting point?
229 to 236 °C

Record request: melting point value, item O=C1N(Cc2ccc(-c3ccccn3)cc2)c2ccccc2C12COc1cc3c(cc12)CCO3 (centres unmarked)
217 to 219 °C

# input molecule: CN1C(=O)C2(COc3cc4c(cc32)OCCO4)c2c1cccc2N1CCCC1=O (centres unmarked) ; wanted: its melting point
256 to 258 °C

Look at this molecule and give its reported melting point. O=C1N(Cc2ccc(Cl)s2)c2ccccc2C12COc1ccc(OCc3ccccc3)cc12 (centres unmarked)
132 to 135 °C

I have this molecule here, CN(C)c1ccc(-c2cccc3c2C2(COc4cc5c(cc42)OCCO5)C(=O)N3Cc2ccccn2)cn1 (centres unmarked) , and I need its recorded melting point.
187 to 188 °C

Which measured melting point value corresponds to `CN1C(=O)[C@]2(COc3cc4c(cc32)OCO4)c2c(-c3ccoc3)cccc21` ?
144 to 145 °C

May I ask what melting point has been recorded for O=C1N(Cc2ccccc2CF)c2ccccc2C12COc1cc3c(cc12)OCCO3 (centres unmarked) ?
188 to 190 °C

Fill blank: measured melting point of the molecule CCCCCCCNC(=O)c1ccccc1CN1C(=O)C2(COc3cc4c(cc32)CCO4)c2ccccc21 (centres unmarked) is ____.
196 to 198 °C

Entry CC(C)CCN1C(=O)C2(COc3cc(O)ccc32)c2ccccc21 (centres unmarked) : reported melting point = ?
101 to 103 °C

Which value of melting point has been reported for Cc1cc2c(cc1C)C1(CO2)C(=O)N(CC2CCOCC2)c2ccccc21 (centres unmarked) in the records?
199 to 201 °C

Item CC(=O)Nc1cccc2c1C1(COc3cc4c(cc31)OCCO4)C(=O)N2C (centres unmarked) has what recorded melting point?
182 to 184 °C

Reported melting point, molecule Cn1c(=O)oc2cc3c(cc21)OCC31C(=O)N(Cc2ccc(C(F)(F)F)o2)c2ccccc21 (centres unmarked) : ____
198 to 199 °C

What measured melting point goes with O=C1N(Cc2ccccc2C(F)F)c2ccccc2C12COc1cc3c(cc12)OCCO3 (centres unmarked) ?
191 to 193 °C

// melting point lookup, key: O=C1N(Cc2cnc(N3CCOCC3)s2)c2ccccc2C12COc1cc3c(cc12)OCO3 (centres unmarked)
97 to 99 °C

Fill in: melting point of O=C1N(Cc2ccc3ncnn3c2)c2ccccc2C12COc1cc3c(cc12)OCCO3 (centres unmarked) is ___
207 to 209 °C

Report melting point for O=C1N(Cc2nsc(Cl)n2)c2cccc(Cl)c2C12COc1cc3c(cc12)OCO3 (centres unmarked) please.
174 to 176 °C

Which melting point reading was recorded for the molecule O=C(Nc1nccs1)c1ccc(CN2C(=O)C3(COc4cc5c(cc43)CCO5)c3ccccc32)cc1 (centres unmarked) ?
> 250 °C

----------
biological target: UniProt:P08684; assay: Cytochrome P450 (CYP450) Inhibition Assay, CYP3A4 (Vivid fluorescence, BOMCC substrate); settings: human, P450 Baculosomes (recombinant CYP3A4), probe BOMCC (Vivid substrate)
Can you tell me inhibition at 10 µM for the items I'm about to list?

Please report the recorded inhibition at 10 µM for O=C1N(Cc2noc(C(F)(F)F)n2)c2ccccc2C12COc1cc3c(cc12)OCO3 (centres unmarked) .
> 50%

What measured inhibition at 10 µM goes with O=C1Nc2ccccc2C12COc1cc3c(cc12)CCCO3 (centres unmarked) ?
< 50%

Look at this compound and give its reported inhibition at 10 µM. Cn1c(=O)oc2cc3c(cc21)OCC31C(=O)N(Cc2ccc(C(F)(F)F)o2)c2ccccc21 (centres unmarked)
> 50%

inhibition at 10 µM lookup needed for `O=C1N(Cc2ccccc2C(F)(F)F)c2ccccc2[C@]12COc1cc3c(cc12)OCCO3` , thanks.
< 50%

Any idea what inhibition at 10 µM was measured for CC(C)NC(=O)c1coc(CN2C(=O)C3(COc4cc5c(cc43)OCO5)c3ccccc32)n1 (centres unmarked) ?
> 50%

Entry under review: Cc1cc2c(cc1C)C1(CO2)C(=O)N(Cc2ccccn2)c2ccccc21 (centres unmarked) . Reported inhibition at 10 µM?
< 50%

May I ask what inhibition at 10 µM has been recorded for O=C1N(Cc2ccc(-c3ccccn3)cc2)c2ccccc2C12COc1cc3c(cc12)CCO3 (centres unmarked) ?
< 50%

# input compound: CCC(=O)Nc1cccc2c1C1(COc3cc4c(cc31)OCCO4)C(=O)N2C (centres unmarked) ; wanted: its inhibition at 10 µM
< 50%

----------
MEASURED_QUANTITY: melting point

Using the record for O=C1N(C[C@H]2CCCO2)c2ccccc2C12COc1cc3c(cc12)OCCCO3 (stereo partly shown) , report its melting point.
134 to 138 °C

melting point lookup needed for O=C1N(Cc2ccc3nonc3c2)c2ccccc2C12COc1cc3c(cc12)CCO3 (stereo not shown) , thanks.
169 to 171 °C

// returns reported melting point for input Nc1noc2cc3c(cc12)C1(CO3)C(=O)N(C[C@H]2CCCO2)c2ccccc21 (stereo partly shown)
116 to 119 °C

Given O=C1N(C[C@@H]2COCCO2)c2ccccc2C12COc1cc3c(cc12)OCC3 (stereo partly shown) , state its recorded melting point.
162 to 164 °C

----------
biological target: UniProtKB P08684; assay: Cytochrome P450 (CYP450) Inhibition Assay, CYP3A4 (Vivid fluorescence, BOMCC substrate); conditions: human, P450 Baculosomes (recombinant CYP3A4), probe BOMCC (Vivid substrate)
Structures can show the parent of a compound that is named as a salt.
Assignment: determine reported inhibition at 10 µM for the given compounds.

Endpoint output: inhibition at 10 µM of COc1cc(CN2C(=O)C3(COc4cc5c(cc43)OCCO5)c3ccccc32)ccc1F (stereo not shown) . Value?
> 50%

What value of inhibition at 10 µM has been recorded for this entry: N#Cc1cccc2c1NC(=O)C21COc2cc3c(cc21)OCO3 (stereo not shown)
> 50%

Consider the compound `CN1CCO[C@H](CN2C(=O)[C@@]3(COc4cc5c(cc43)OCCO5)c3ccccc32)C1` and give its measured inhibition at 10 µM.
< 50%

State the recorded inhibition at 10 µM for this entry: O=C1N(Cc2ccc(Cl)s2)c2cccc(-c3ccoc3)c2C12COc1cc3c(cc12)OCO3 (stereo not shown)
> 50%

// lookup inhibition at 10 µM for O=C1N(Cc2ccc(-c3cccnc3)cc2)c2ccccc2C12COc1cc3c(cc12)CCO3 (stereo not shown)
> 50%

For the compound Cc1ccc(F)c(NC(=O)c2ccccc2CN2C(=O)C3(COc4cc5c(cc43)CCO5)c3ccccc32)c1 (stereo not shown) , what inhibition at 10 µM is on record?
> 50%

I'd like to know its inhibition at 10 µM. The compound in question is Nc1ccc(CN2C(=O)C3(COc4cc5c(cc43)OCCO5)c3ccccc32)cn1 (stereo not shown)
< 50%

Value lookup for inhibition at 10 µM; key = O=C1N(Cc2ncccc2Br)c2ccccc2C12COc1cc3c(cc12)OCCO3 (stereo not shown)
< 50%

Reported inhibition at 10 µM for O=C1N(Cc2ccc(Cl)s2)c2ccccc2C12COc1ccc(OCc3ccccc3)cc12 (stereo not shown) : what is it?
> 50%

Looking for the measured inhibition at 10 µM of CC(C)c1nc(CN2C(=O)C3(COc4cc5c(cc43)OCCO5)c3ccccc32)cs1 (stereo not shown) , can you help?
> 50%

Tell me the measured inhibition at 10 µM of CN1CCC(CN2C(=O)C3(COc4cc(F)c(F)cc43)c3ccccc32)CC1 (stereo not shown) [Example 11.112, hydrochloride] , please.
> 50%

Entry Cc1ccc(F)c2c1NC(=O)C21COc2cc3c(cc21)CCO3 (stereo not shown) has what inhibition at 10 µM?
> 50%

Entry under review: O=C1N(Cc2cc(F)cc(F)c2)c2ccccc2C12COc1cc3c(cc12)OCCO3 (stereo not shown) . Reported inhibition at 10 µM?
> 50%

// returns reported inhibition at 10 µM for input COCCNC(=O)c1cccc(CN2C(=O)C3(COc4cc5c(cc43)CCO5)c3ccccc32)c1 (stereo not shown)
> 50%

What value of inhibition at 10 µM has been reported for the following compound? CNC(=O)c1ccc(CN2C(=O)C3(COc4cc5c(cc43)CCO5)c3ccccc32)cc1 (stereo not shown)
> 50%

// lookup inhibition at 10 µM for CCCCN(C)CCCN1C(=O)C2(COc3cc4c(cc32)CCO4)c2ccccc21.Cl (stereo not shown) [Example 15.2, hydrochloride]
> 50%

----------
biological target: CYP3A4 (Homo sapiens); assay: Cytochrome P450 (CYP450) Inhibition Assay, CYP3A4 (Vivid fluorescence, BOMCC substrate); conditions: human, P450 Baculosomes (recombinant CYP3A4), probe BOMCC (Vivid substrate)
Sequence (P08684 whole entry): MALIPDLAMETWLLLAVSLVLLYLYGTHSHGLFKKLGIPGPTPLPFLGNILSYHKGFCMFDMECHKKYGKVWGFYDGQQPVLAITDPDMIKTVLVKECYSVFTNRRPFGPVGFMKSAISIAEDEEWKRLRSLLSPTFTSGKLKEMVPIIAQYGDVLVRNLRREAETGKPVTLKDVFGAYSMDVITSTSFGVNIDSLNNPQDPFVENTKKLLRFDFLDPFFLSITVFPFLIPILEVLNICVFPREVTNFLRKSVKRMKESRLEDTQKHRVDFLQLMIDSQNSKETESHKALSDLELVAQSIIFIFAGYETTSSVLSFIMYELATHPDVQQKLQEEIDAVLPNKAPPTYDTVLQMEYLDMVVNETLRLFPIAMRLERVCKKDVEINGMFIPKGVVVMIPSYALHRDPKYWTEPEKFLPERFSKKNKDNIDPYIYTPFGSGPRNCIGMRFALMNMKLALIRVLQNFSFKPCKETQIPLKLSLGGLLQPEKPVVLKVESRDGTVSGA
Can you tell me inhibition at 10 µM for the items I'm about to list?

I'd like to know its inhibition at 10 µM. The compound in question is COc1ncc(CN2C(=O)C3(COc4cc5c(cc43)CCO5)c3ccccc32)cn1 (centres unmarked)
< 50%

For CN1C(=O)C2(COc3cc4c(cc32)OCCO4)c2c(C(=O)NCc3ccccn3)cccc21 (centres unmarked) , what is its reported inhibition at 10 µM?
< 50%

Given the entry CC(C)(C)CCNC(=O)CN1C(=O)C2(COc3cc4c(cc32)CCO4)c2ccccc21 (centres unmarked) , report its measured inhibition at 10 µM.
> 50%

Please report the recorded inhibition at 10 µM for O=C1N(C[C@H]2COCCO2)c2ccccc2C12COc1cc3c(cc12)OCO3 (some centres unmarked) .
> 50%

What inhibition at 10 µM value was documented for this compound, N#Cc1cccnc1CN1C(=O)C2(COc3cc4c(cc32)OCCO4)c2ccccc21 (centres unmarked) ?
< 50%

Give its inhibition at 10 µM value. Item: CN(C)C(=O)c1cccc(CN2C(=O)C3(COc4cc5c(cc43)OCCO5)c3ccccc32)c1 (centres unmarked)
> 50%

I have this compound here, CN1CCOc2cc3c(cc21)C1(CO3)C(=O)N(C[C@H]2CCCO2)c2ccccc21.Cl (some centres unmarked) [Example 2.29, hydrochloride] , and I need its recorded inhibition at 10 µM.
< 50%

For the compound `O=C1N(Cc2cncc(F)c2)c2ccccc2[C@]12COc1cc3c(cc12)OCCO3` , what inhibition at 10 µM is on record?
< 50%
